Biological target: BSA (UniProt P02769)
Sequence (P02769 25-607 limits assumed): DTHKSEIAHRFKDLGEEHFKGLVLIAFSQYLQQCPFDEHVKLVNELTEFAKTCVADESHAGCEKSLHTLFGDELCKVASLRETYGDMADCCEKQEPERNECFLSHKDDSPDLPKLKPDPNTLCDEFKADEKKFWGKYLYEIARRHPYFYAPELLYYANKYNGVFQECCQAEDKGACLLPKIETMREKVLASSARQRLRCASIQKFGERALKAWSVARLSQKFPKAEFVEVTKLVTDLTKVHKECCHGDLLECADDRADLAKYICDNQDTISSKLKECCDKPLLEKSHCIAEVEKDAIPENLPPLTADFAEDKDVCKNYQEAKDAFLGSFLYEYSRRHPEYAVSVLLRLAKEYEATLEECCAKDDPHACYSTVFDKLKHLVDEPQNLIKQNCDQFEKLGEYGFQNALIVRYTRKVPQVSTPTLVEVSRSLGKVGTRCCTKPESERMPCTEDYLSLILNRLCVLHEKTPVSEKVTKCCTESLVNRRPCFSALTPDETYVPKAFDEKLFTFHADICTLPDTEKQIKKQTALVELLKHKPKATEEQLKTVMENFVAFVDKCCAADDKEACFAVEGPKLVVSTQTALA
Assay: scFv ELISA
Property Label: OD450 (OD450)
Record the value in OD450, omitting the unit from your answer.

Prompt: What does the record list as OD450 for PcOxP_DB01_H09 (scFv, V domains shown, scFv in periplasmic extract) VH: EVQLLESGGGLVQPGGSLRLSCAASGFTFSDYYMEWVRQAPGKGLEWVAASRNKANTYTTEYADSVKGRFTISRDNSKNTLYLQMNSLRAEDTAVYYCARDYYGSSYWYDDVWGQGTLVTVSS VL: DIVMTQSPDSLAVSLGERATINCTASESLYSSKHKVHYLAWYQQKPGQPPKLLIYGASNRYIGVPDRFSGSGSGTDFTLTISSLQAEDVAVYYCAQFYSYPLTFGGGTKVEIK ?
Response: 0.09

Prompt: Given the entry PcOxP_DB03_E12 (scFv, V domains shown, scFv in periplasmic extract) VH: EVQLLESGGGLVQPGGSLRLSCAASGETFSDFYMEWVRQAPGKGLEWVAASRNKWNDYTTEYADSVKGRFTISRDNSKNTLYLQMNSLRAEDTAVYYCARDYYGSSYWYFDVWGQGTLVTVSS VL: DIVMTQSPDSLAVSLGERATINCTASESLYSSKHKVNYLAWYQQKPGQPPKLLIYGASNRYIGVPDRFSGSGSGTDFTLTISSLQAEDVAVYYCAQFYSYPLTFGGGTKVEIK , report its measured OD450.
Response: 0.06

Prompt: # query: OD450 of entry PcOxP_DB03_B07 (scFv, V domains shown, scFv in periplasmic extract) VH: EVQLLESGGGLVQPGGSLRLSCAASGFGFSDFYMEWVRQAPGKGLEWVAASRNKANDYTTEYADSVKGRFTISRDNSKNTLYLQMNSLRAEDTAVYYCARDYYSSSYWYFDVWGQGTLVTVSS VL: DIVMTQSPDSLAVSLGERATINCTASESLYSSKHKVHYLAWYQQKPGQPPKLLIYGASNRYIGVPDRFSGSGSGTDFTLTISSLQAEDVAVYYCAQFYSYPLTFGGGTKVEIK
Response: 0.12
